Tested on: CCRF-CEM leukemia
Assay: NCI-60 one-dose screen, 48 h
Conditions: 10 µM unless noted
This is part of a sample that, as a whole, favours compounds with a hit. Of some 83,000 tested, about 20% had one in any assay. Activity calls are given as the source filed them. How the source made its calls: active means growth percent below 10; inactive means the rest.
Tick one outcome: true (active), false (inactive)

CCNC(=S)n1nc(SC)c(C(=O)OCC)c1N    false

input: Give the logged outcome of this assay for the following molecule: `CC(=O)c1c(C)nc(SCC(=O)Nc2ccc(Cl)cc2)n1-c1ccc(Cl)cc1`
output: false

input: Give the logged outcome of this assay for the following molecule: `C=CCN1C=CC(=O)[C@H](O[Si](C)(C)C(C)(C)C)[C@@H]1/C=C/c1ccccc1`
output: true
